# measurement-description: Quantitative High-Throughput drug screen in 47 multiple myeloma cell lines against the NCATS MIPE library collection: RPMI8226_ATCC cell viability assay (AID 1919871); further: nearly all actives have a fitted effect of over 30% in size; further: potency means the concentration at half of the fitted maximal effect
# experimental-context: RPMI8226 myeloma viability, CellTiter-Glo ATP luminescence, 48 h; series mostly up to 45.8 µM
Results filed as inconclusive are left out. The source made the active and inactive calls. The call rests on the fitted dose curve; in most records, active means well fitted cell-killing curve with a large enough effect; inconclusive means small, poorly fitted or top-dose-only effect, or effect the other way; inactive means no such curve, though single readings can be large or run the other way.
assay-endpoint: Potency

C[N+](C)([O-])CCNc1ccc(NCC[N+](C)(C)[O-])c2c1C(=O)c1c(O)ccc(O)c1C2=O :: inactive
O=c1ccn([C@@H]2O[C@H](CO)[C@H](O)[C@@H]2F)c(=O)[nH]1 :: inactive
CC(C)(O)Cn1c(NC(=O)c2ccc(-c3cn[nH]c3)s2)nc2cc(CN3CCOCC3)ccc21 :: 2.35 µM (active)

* * *

# measurement-description: qHTS Screen of the MIPE 4.0 Collection Against Ewings Sarcoma (RDES) (AID 1259252); further: nearly all actives have a fitted effect of over 35% in size
# experimental-context: RD-ES Ewing sarcoma viability, CellTiter-Glo, 48 h; series mostly up to 45.8 µM
Results filed as inconclusive are left out. The source made the active and inactive calls. The call rests on the fitted dose curve; in most records, active means well fitted inhibition curve with a large enough effect; inconclusive means small, poorly fitted or top-dose-only effect; inactive means no such curve, though single readings can be large or run the other way.
Answer with one of the outcomes given here: active, inactive

In: Which outcome was assigned to `CC(=O)ON=C1C(c2c(O)[nH]c3cc(Br)ccc23)=Nc2ccccc21` in this test?
Out: active

In: Which outcome was assigned to `COc1ccc(C=Cc2cc(OC)c(OC)c(OC)c2)cc1NC(=O)[C@H](N)CO` in this test?
Out: active

In: Which outcome was assigned to `CC1(C)CC(O)CC(C)(C)N1[O]` in this test?
Out: inactive

In: Which outcome was assigned to `C[C@H]1[C@@H](OC(=O)CCC(=O)O)O[C@@H]2O[C@@]3(C)CC[C@@H]4[C@H](C)CC[C@@H]1[C@@]24OO3` in this test?
Out: active

In: Which outcome was assigned to `CNC(=O)Nc1ccc(-c2nc(N3CC4CCC(C3)O4)c3cnn(C4CCC5(CC4)OCCO5)c3n2)cc1` in this test?
Out: active

* * *

# measurement-description: qHTS profiling of the MIPE4 collection as inhibitors of Plasmodium falciparum (HB3) proliferation (AID 743347);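 further: plate controls were DMSO vehicle wells for no effect and artemisinin wells for full effect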
# experimental-context: P. falciparum HB3 in erythrocytes, SYBR Green DNA, 72 h; at 28.5 µM (top of the series) unless noted
Binning of growth, % of control into classes: Low = under 9%, Mid = from 9% up to 50%, High = 50% and over

In: Hello team, could you let me know which band the following molecule falls into: `O=C(C=CC#Cc1cccc(NS(=O)(=O)c2ccccc2)c1)NO`
Out: Low

In: Hello team, could you let me know which band the following molecule falls into: `CCc1nc(-c2cccc(C)c2)c(-c2ccnc(NC(=O)c3ccccc3)c2)s1`
Out: Mid

In: Hello team, could you let me know which band the following molecule falls into: `CS[C@H]1SC[C@@H]2C(=O)N(C)[C@H](C(C)C)C(=O)OC[C@H](NC(=O)c3cnc4ccccc4n3)C(=O)N[C@H](C)C(=O)N(C)[C@@H]1C(=O)N(C)[C@H](C(C)C)C(=O)OC[C@H](NC(=O)c1cnc3ccccc3n1)C(=O)N[C@H](C)C(=O)N2C`
Out: Mid

In: Hello team, could you let me know which band the following molecule falls into: `c1ccc2c(Oc3nc(Nc4ccc(N5CCOCC5)cc4)c4ncn(C5CCCCC5)c4n3)cccc2c1`
Out: Mid

In: Hello team, could you let me know which band the following molecule falls into: `O=C(O)c1ccc(Nc2ncc3c(n2)-c2ccc(Cl)cc2C(c2c(F)cccc2F)=NC3)cc1`
Out: High

In: Hello team, could you let me know which band the following molecule falls into: `COc1cc([C@@H]2c3cc4c(cc3[C@@H](O[C@@H]3O[C@@H]5CO[C@@H](c6cccs6)O[C@@H]5[C@H](O)[C@@H]3O)[C@H]3COC(=O)[C@H]23)OCO4)cc(OC)c1O`
Out: Low

In: Hello team, could you let me know which band the following molecule falls into: `C[C@@]12C[C@@]3(O)O[C@@H](O1)[C@]1(COC(=O)c4ccccc4)[C@@H]3C[C@@]12O[C@@H]1O[C@H](CO)[C@@H](O)[C@H](O)[C@@H]1O`
Out: High

In: Hello team, could you let me know which band the following molecule falls into: `CC(C)N(CC[C@H](c1ccccc1)c1cc(CO)ccc1O)C(C)C`
Out: High

In: Hello team, could you let me know which band the following molecule falls into: `COc1cc(N2CCC(C(N)=O)CC2)ccc1Nc1nc(N)c(Cl)c(Nc2ccccc2S(=O)(=O)C(C)C)n1`
Out: High

In: Hello team, could you let me know which band the following molecule falls into: `Cc1cnc(Nc2ccc(N3CCN(C)CC3)cc2)nc1Nc1cccc(S(=O)(=O)NC(C)(C)C)c1`
Out: Low

In: Hello team, could you let me know which band the following molecule falls into: `O=C(NC1CC1)c1cccc(-c2ccc3c(NC(=O)C4CC4)n[nH]c3c2)c1`
Out: High

In: Hello team, could you let me know which band the following molecule falls into: `O=C(Nc1nnc(-c2ccco2)o1)c1cc(-c2ccccc2)nc2ccccc12`
Out: Mid

In: Hello team, could you let me know which band the following molecule falls into: O=C1CSC(=O)N1C(CCc1ccncc1)COc1ccc(-c2cccc([N+](=O)[O-])c2)cc1 (centres undefined)
Out: Low

* * *

# measurement-description: High-throughput drug toxicity screening in the BPDCN cell line Cal-1 (AID 1224825);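 further: cells exposed to compounds for 48 h; 100% = DMSO and 0% = bortezomib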
# experimental-context: Cal-1 BPDCN cell viability, qHTS; at 45.8 µM (top of the series) unless noted
Exercise: state measured viability (% of control) for each of the compounds provided.
Give bare numbers, in % [at 23.2 µM].

NC1=N[C@H]2[C@H](CS[C@H]2CCCCC(=O)O)N1 :: 126

In: Tell me its viability (% of control) given `CC[C@@]1([C@@H]2O[C@@H]([C@H]3O[C@@](O)(CO)[C@H](C)C[C@H]3C)C[C@H]2C)CC[C@H]([C@]2(C)CC[C@]3(C[C@H](O)[C@@H](C)[C@@H]([C@@H](C)[C@@H](OC)[C@H](C)C(=O)O)O3)O2)O1` as the entry.
Out: 65.7

* * *

# measurement-description: Quantitative High-Throughput drug screen in 47 multiple myeloma cell lines against the NCATS MIPE library collection: PCM6_Riken cell viability assay (AID 1919870); further: nearly all actives have a fitted effect of over 30% in size
# experimental-context: CellTiter-Glo ATP, 48 h; series mostly up to 45.8 µM
Results filed as inconclusive are left out. Calls of active or inactive are those of the source. Calls come from the whole dose curve; as a rule, active = well fitted cell-killing curve with a large enough effect; inconclusive = small, poorly fitted or top-dose-only effect, or effect the other way; inactive = no such curve, though single readings can be large or run the other way.
Answer with one of the outcomes given here: true for active, false for inactive

As a guide, the following entries are already answered.
COc1ccc(CCC(=O)c2c(O)cc(O[C@@H]3O[C@H](CO)[C@@H](O)[C@H](O)[C@@H]3O[C@@H]3O[C@@H](C)[C@H](O)[C@@H](O)[C@@H]3O)cc2O)cc1O :: true
C[C@@H](NCc1cc2ccccc2[nH]1)c1cccc2ccccc12 :: false
NC(=O)c1ncn([C@@H]2O[C@H](CO)[C@@H](O)[C@@H]2O)c1O :: false
CC(C)(O)Cn1c(NC(=O)c2ccc(-c3cn[nH]c3)s2)nc2cc(CN3CCOCC3)ccc21 :: true
C[C@@H]1[C@H](C)CC[C@]2(C(=O)O)CC[C@]3(C)C(=CC[C@@H]4[C@@]5(C)C[C@@H](O)[C@H](O)[C@@](C)(CO)[C@H]5CC[C@]43C)[C@@H]12 :: false
NC(=O)Nc1cc(-c2ccc(CN3CCOCC3)cc2)sc1C(N)=O :: true
O=C1NCCc2[nH]c(-c3ccncc3)cc21 :: true
C[C@H]1[C@@H](OC(=O)CCC(=O)O)O[C@@H]2O[C@@]3(C)CC[C@@H]4[C@H](C)CC[C@@H]1[C@@]24OO3 :: true

In: Which outcome was assigned to `CC(=O)OCC(=O)[C@@]1(O)CC[C@H]2[C@@H]3CCC4=CC(=O)CC[C@]4(C)[C@@H]3C(=O)C[C@@]21C` in this test?
Out: false

In: Which outcome was assigned to COC(=O)C1C2CC3c4[nH]c5cc(OC)ccc5c4CCN3CC2CC(OC(=O)c2cc(OC)c(OC)c(OC)c2)C1OC (stereo not drawn) in this test?
Out: true

In: Which outcome was assigned to `NC(=O)c1cccc(-c2cccc(OC(=O)NC3CCCCC3)c2)c1` in this test?
Out: false

In: Which outcome was assigned to `COc1ccnc2[nH]cc(C(=O)C(=O)N3CCN(C(=O)c4ccccc4)C[C@@H]3C)c12` in this test?
Out: false

In: Which outcome was assigned to CC(C(C)N1CC(=O)NC(=O)C1)N1CC(=O)NC(=O)C1 (stereo not drawn) in this test?
Out: false

* * *

# measurement-description: qHTS of pediatric cancer cell lines to identify multiple opportunities for drug repurposing: Primary screen for BT-12 cells (AID 1347101); further: nearly all actives have a fitted effect of over 25% in size
# experimental-context: BT-12 viability, CellTiter-Glo luminescence, 48 h; series mostly up to 57.3 µM
# Description: Drug repurposing or repositioning has been offered as a strategy for drug development in oncology programs. […] [1] Shen, M et al. Quantitative high-throughput phenotypic screening of pediatric cancer cell lines identifies multiple opportunities for drug repurposing. […] Cells were assayed in growth media at a density of 500-1,000 cells/well. […] After a 15 min incubation at room temperature, samples were analyzed for luminescence intensity using a ViewLux High-throughput CCD imager equipped with clear filters.
Results filed as inconclusive are left out. Calls of active or inactive are those of the source. The call rests on the fitted dose curve; in most records, active means well fitted cell-killing curve with a large enough effect; inconclusive means small, poorly fitted or top-dose-only effect; inactive means flat fitted curve, though single readings scatter.
Answer with one of the outcomes given here: active, inactive

COc1cccc2c1C(=O)c1c(O)c3c(c(O)c1C2=O)C[C@@](O)(C(=O)CO)C[C@@H]3O[C@H]1C[C@H](N)[C@H](OC2CCCCO2)[C@H](C)O1 (some centres undefined) :: active
CCCCCCCN(CC)CCCC(O)c1ccc(NS(C)(=O)=O)cc1 (centres undefined) :: inactive
C=Cc1c(C)c2cc3nc(cc4[nH]c(cc5nc(cc1[nH]2)C(C)=C5CCC(=O)O)c(CCC(=O)OC)c4C)[C@@]1(C)C3=CC=C(C(=O)OC)[C@H]1C(=O)OC :: active
O=C(O)C[C@H](O)C[C@H](O)C=Cc1c(C2CC2)nc2ccccc2c1-c1ccc(F)cc1 :: active
CC(=O)NC(CS)C(=O)O (centres undefined) :: inactive

In: Which outcome was assigned to `Nc1nc2c(c(=O)[nH]1)N(C=O)[C@H](CNc1ccc(C(=O)N[C@@H](CCC(=O)O)C(=O)O)cc1)CN2` in this test?
Out: active

In: Which outcome was assigned to `Cn1cnc(=N)c2[nH]cnc21` in this test?
Out: active

In: Which outcome was assigned to `COc1cc(CCc2cc(NC(=O)c3ccc(N4C[C@@H](C)N[C@@H](C)C4)cc3)n[nH]2)cc(OC)c1` in this test?
Out: active

In: Which outcome was assigned to `Cc1ncc(-c2ccnc(Nc3ccc(S(C)(=O)=O)cc3)n2)n1C(C)C` in this test?
Out: active

Values compiled from PubChem BioAssay (NCATS).
